- System: Klebsiella pneumoniae
- assay_details: Antibacterial activity against non-gentamicin-resistant Klebsiella pneumoniae clinical isolate assessed as susceptible isolates after 18 hrs by agar dilution method
- Type: functional
Activity: recorded values
Output spec: scalar in %, unitless text.

Reference set, count: 3
| compound | scale_unit | reported_measurement |
| --- | --- | --- |
| CCN[C@@H]1C[C@H](N)[C@@H](O[C@H]2OC(CN)=CC[C@H]2N)[C@H](O)[C@H]1O[C@H]1OC[C@](C)(O)[C@H](NC)[C@H]1O [NETILMICIN] | % | 94 |
| CN[C@@H]1[C@@H](O)[C@@H](O[C@@H]2[C@@H](O)[C@H](O[C@@H]3OC(C(C)N)=CC[C@@H]3N)[C@@H](N)C[C@H]2N)OC[C@]1(C)O (some centres undefined) [VERDAMICIN] | % | 98.8 |
| NCC[C@H](O)C(=O)N[C@@H]1C[C@H](N)[C@@H](O[C@H]2O[C@H](CN)[C@@H](O)[C@H](O)[C@H]2O)[C@H](O)[C@H]1O[C@H]1O[C@H](CO)[C@@H](O)[C@H](N)[C@H]1O [AMIKACIN] | % | 100 |

input: Please list Activity recorded for the compound CCN[C@@H]1C[C@H](N)[C@@H](O[C@@H]2OC(C(C)N)=CC[C@@H]2N)[C@H](O)[C@H]1O[C@H]1OC[C@](C)(O)[C@H](NC)[C@H]1O (some centres undefined) [VERTILMICIN]
output: 97.6
